test target: IRAK-4 (Homo sapiens, UniProt Q9NWZ3)
Construct: purchased Carna Biosciences, Inc
Sequence (Q9NWZ3 whole entry): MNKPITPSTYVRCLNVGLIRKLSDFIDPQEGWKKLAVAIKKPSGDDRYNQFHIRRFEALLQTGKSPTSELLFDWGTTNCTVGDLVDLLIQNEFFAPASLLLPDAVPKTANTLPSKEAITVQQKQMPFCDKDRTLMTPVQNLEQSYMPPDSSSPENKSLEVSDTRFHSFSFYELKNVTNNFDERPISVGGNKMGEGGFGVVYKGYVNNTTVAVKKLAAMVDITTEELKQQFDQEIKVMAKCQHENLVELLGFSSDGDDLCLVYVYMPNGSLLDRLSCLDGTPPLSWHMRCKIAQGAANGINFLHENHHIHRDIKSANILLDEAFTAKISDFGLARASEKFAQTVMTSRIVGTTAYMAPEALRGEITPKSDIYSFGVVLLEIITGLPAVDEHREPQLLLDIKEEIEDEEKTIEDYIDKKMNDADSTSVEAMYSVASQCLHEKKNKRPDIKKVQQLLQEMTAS
run description: IRAK-4 Enzyme Inhibition Test (LANCE method)
Format: biochemical
assay setup: compound concentration 1 μM; well without enzyme = 100% inhibition; read-out: IRAK4 enzyme inhibitory rate (%) at 1 μM
result type: inhibition at 1 µM (%)
Give the number; % is assumed, so skip it.

{"compound": "C[C@H]1C(O)C(C)(C)C(=O)N1c1nn(C)cc1NC(=O)c1coc(-c2ccnc(NCC(F)(F)F)c2)n1 (stereo partly shown)", "result type": "inhibition at 1 µM", "measured result": 77}
{"compound": "C[C@H]1CCN(c2nn(C)cc2NC(=O)c2coc(-c3ccnc(NCC(F)(F)F)c3)n2)C1=O", "result type": "inhibition at 1 µM", "measured result": 99}
{"compound": "Cn1cc(NC(=O)c2cccc(N3C[C@@H](CN)NC3=O)n2)c(N2CCC(C)(C)C2=O)n1", "result type": "inhibition at 1 µM", "measured result": 99}

Challenge: Dear colleague, I am looking for the recorded inhibition at 1 µM of the following compound: CN(C)[C@H]1CC(=O)N(c2nn(C)cc2NC(=O)c2coc(-c3ccnc(NCC(F)(F)F)c3)n2)C1
Response given: 98
